IC50 values for Coagulation factor XI (Homo sapiens, UniProt P03951) compiled from several publications are listed below.
Give the value in nM but do not write nM after it.

>  <molecule>
COc1cn(C(CCOC(F)(F)F)C(=O)Nc2ccc3nn(C)cc3c2)c(=O)cc1-c1cc(Cl)ccc1OCC(F)(F)F (racemic)

>  <IC50 (nM)>
13

$$$$
>  <molecule>
C[C@@H]1Cc2ccc(Cl)cc2-c2cc(=O)n([C@@H](C[C@@H]3CCCCO3)C(=O)Nc3ccc(C(N)=O)c(F)c3)cc2CO1 (single isomer, unassigned)

>  <IC50 (nM)>
5.5

$$$$
>  <molecule>
O=C(O)c1ccc(NC(=O)[C@H](CC2CC2)c2ccc(-c3cc(Cl)ccc3-n3cnnn3)c[n+]2[O-])cc1

>  <IC50 (nM)>
0.14

$$$$
>  <molecule>
Nc1c(C(=O)N2CCC[C@@]3(C2)OC(=O)Nc2ccc(Cl)c(F)c23)cnn1-c1cccc2c1OC(F)(F)O2

>  <IC50 (nM)>
525

$$$$
>  <molecule>
Cc1nc(Cn2cc(NC(=O)c3cncc(-c4c(C(F)F)ccc(Cl)c4F)n3)cn2)cnc1N1CC(F)(F)C1

>  <IC50 (nM)>
3690

$$$$
>  <molecule>
CO[C@@H](C)C[C@@H](C(=O)Nc1ccc(C(N)=O)cc1)n1cc2c(cc1=O)-c1c(ccc(Cl)c1F)C[C@@H](C)OC2 (single isomer, unassigned)

>  <IC50 (nM)>
1.6

$$$$
>  <molecule>
O=C(O)c1ccc(NC(=O)C(CC2CC2)c2ccc(-c3cc(Cl)ccc3-n3ccnn3)c[n+]2[O-])cc1 (single isomer, unassigned)

>  <IC50 (nM)>
4.7

$$$$
>  <molecule>
Cc1nc(N2C[C@H]3C[C@H]3C2=O)ncc1C(C)n1cc(NC(=O)c2nc(-c3c(C(F)F)ccc(Cl)c3F)cnc2C)cn1 (single isomer, unassigned)

>  <IC50 (nM)>
4510

$$$$
>  <molecule>
O=C(Nc1ccc2cn[nH]c2c1)C(Cc1ccccc1)c1ccc(-c2cc(Cl)ccc2-n2cnnn2)c[n+]1[O-] (racemic)

>  <IC50 (nM)>
0.24

$$$$
>  <molecule>
CC(c1cnc(N2CC[C@H]2CN2CC[C@H](O)[C@@H]2C)nc1)n1cc(NC(=O)c2cncc(-c3c(C(F)F)ccc(Cl)c3F)n2)cn1 (stereo partly shown)

>  <IC50 (nM)>
9630

$$$$

[ask] Give a short answer stating reported IC50 for Cc1cc(-c2cc(N)n(CC(=O)N3CC[C@@]4(C3)OC(=O)Nc3ccc(Cl)c(F)c34)n2)no1 .
[reply] 862

[ask] Give a short answer stating reported IC50 for CCn1cnc2ccc(NC(=O)[C@@H]3CC[C@@H]4CC(c5c(-n6cnnn6)ccc(Cl)c5F)=CC(=O)N43)cc2c1=O .
[reply] 22.7

[ask] Give a short answer stating reported IC50 for COc1cn(C(CCOC(C)(C)C)C(=O)Nc2ccc(C(=O)O)cc2)c(=O)cc1-c1cc(Cl)ccc1OC(F)F (racemic) .
[reply] 2.9

[ask] Give a short answer stating reported IC50 for CCOc1cn(-c2ccc(Cl)cc2-c2ccc([C@@H]3CCC[C@@H](C)C(=O)Nc4cnn(C(F)F)c4-c4ccnc3c4)c(=O)o2)nn1 (single isomer, unassigned) .
[reply] 20.4

[ask] Give a short answer stating reported IC50 for Cc1cc([C@@H](C)n2cc(NC(=O)c3cncc(-c4c(C(F)F)ccc(Cl)c4F)n3)cn2)nnc1N1C[C@H]2C[C@H]2C1=O .
[reply] 742
